- protocol: Accelerated stability test (40° C., RH75%), change in degradation product CNS-7054
- Type: physicochemical
- experimental_setup: 6 months, after packaging, degradation product CNS-7054
- Experimental: The compound of Formula I prepared in the above examples were selected, and placed under the conditions of 40° C., RH75% and 25° C., RH60% for an accelerated stability test and a long-term stability test after packaging. The changes in the degradation product (CNS-7054) in these compounds in 6 months were observed, and the results are shown in Table 13 below. […]
test_readout: Change in CNS-7054, Accelerated experiment (40° C., RH75%)

Record excerpt, results attached:
[
  {
    "compound": "CCOC(=O)CCC1N=C(c2ccccn2)c2cc(Br)ccc2-n2c(C)cnc21.Cl (centres unmarked) [Ethyl, None]",
    "value_measured": "Not increased"
  },
  {
    "compound": "COC(=O)CCC1N=C(c2ccccn2)c2cc(Br)ccc2-n2c(C)cnc21.Cl (centres unmarked) [Methyl, 2% glycine]",
    "value_measured": "Not increased"
  },
  {
    "compound": "CCOC(=O)CCC1N=C(c2ccccn2)c2cc(Br)ccc2-n2c(C)cnc21.Cl (centres unmarked) [Ethyl, 4% alanine]",
    "value_measured": "Increased by 0.01%"
  },
  {
    "compound": "CCOC(=O)CCC1N=C(c2ccccn2)c2cc(Br)ccc2-n2c(C)cnc21.Cl (centres unmarked) [Ethyl, 4.5% glycine]",
    "value_measured": "Not increased"
  }
]

Proceed to the following item.
Memo: COC(=O)CCC1N=C(c2ccccn2)c2cc(Br)ccc2-n2c(C)cnc21.Cl (centres unmarked) [Methyl, 4% valine] , reported Change in CNS-7054, Accelerated experiment (40° C., RH75%): Increased by 0.01%
